test_target: hCA II (Homo sapiens, UniProt P00918)
test_name: Stopped-flow CO2 hydrase assay, hCA II
run_parameters: selectivity index, ratio of KIs
measured_parameter: SI CA I/II

smiles_record	measured_parameter	value_reported
NS(=O)(=O)c1ccc(CCNCc2cccc3ccccc23)cc1	SI CA I/II	1.5
NS(=O)(=O)c1ccc(CCNCc2ccc(Br)cc2)cc1	SI CA I/II	1.1
NS(=O)(=O)c1ccc(CCNCc2ccc([N+](=O)[O-])cc2)cc1	SI CA I/II	1.9

[P] N#CCCNCCc1ccc(S(N)(=O)=O)cc1
[Q] NS(=O)(=O)c1ccc(CCNCc2csc3ccccc23)cc1
[R] COc1ccc(CNCCc2ccc(S(N)(=O)=O)cc2)cc1OC
[S] NS(=O)(=O)c1ccc(CCNCCc2ccccc2)cc1
**Q:** Order each entry by recorded SI CA I/II, climbing from the minimum. In plain terms: list the labels in the order you were asked to.
**A:** P, R, Q, S

###

Tested on: rats
test_name: Toxicity and Irwin test
Format: in vivo, rat
run_parameters: 30 mg/kg; Autonomic signes; limits 4 - 0
Protocol: Toxicity was evaluated after a single acute administration of 26, 29, 30, and 31 at 30 mg/kg. […] For the Irwin test, each rat was individually placed in a transparent cage (26 × 41 cm), and 26 neurobehavioral or physiological parameters were systematically assessed according to Irwin (1968)[55] and already reported by Berrino and colleagues in similar studies.[30] […]
measured_parameter: Irwin test: Palpebral opening
Write the number on its own, no unit after it.

Use these answered entries as a reference point.
smiles_record	value_reported
NS(=O)(=O)c1ccc(CCN(Cc2cccc3ccccc23)C(=O)c2ccc(-c3cssc3=S)cc2)cc1	4
CSc1ccc(CN(CCc2ccc(S(N)(=O)=O)cc2)C(=O)c2ccc(-c3cssc3=S)cc2)cc1	4
NS(=O)(=O)c1ccc(CCN(Cc2csc3ccccc23)C(=O)c2ccc(-c3cssc3=S)cc2)cc1	4

**Q:** Look at this molecule and give its reported Irwin test: Palpebral opening. COc1cc([N+](=O)[O-])ccc1CN(CCc1ccc(S(N)(=O)=O)cc1)C(=O)c1ccc(-c2cssc2=S)cc1
**A:** 4

###

test_target: hCA IV (Homo sapiens)
Sequence (P22748 19-312): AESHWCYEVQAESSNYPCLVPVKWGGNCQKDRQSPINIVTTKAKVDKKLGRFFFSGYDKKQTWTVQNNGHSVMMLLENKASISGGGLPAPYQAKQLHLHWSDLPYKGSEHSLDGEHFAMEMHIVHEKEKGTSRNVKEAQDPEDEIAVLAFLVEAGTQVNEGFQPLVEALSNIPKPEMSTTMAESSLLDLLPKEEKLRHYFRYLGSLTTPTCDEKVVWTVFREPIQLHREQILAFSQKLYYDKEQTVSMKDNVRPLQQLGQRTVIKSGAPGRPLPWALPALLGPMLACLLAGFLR
test_name: Stopped-flow CO2 hydrase assay, hCA IV
run_parameters: selectivity index, ratio of KIs
measured_parameter: SI CA II/IV

smiles_record	SI CA II/IV
NS(=O)(=O)c1ccc(CCNCc2csc3ccccc23)cc1	0.03

[I] COc1ccc(CN(CCc2ccc(S(N)(=O)=O)cc2)C(=O)c2ccc(-c3cssc3=S)cc2)cc1
[II] NS(=O)(=O)c1ccc(CCN(Cc2ccc(Br)cc2)C(=O)c2ccc(-c3cssc3=S)cc2)cc1
[III] COc1ccc(CN(CCc2ccc(S(N)(=O)=O)cc2)C(=O)c2ccc(-c3cssc3=S)cc2)cc1OC
[IV] N#Cc1ccc(CN(CCc2ccc(S(N)(=O)=O)cc2)C(=O)c2ccc(-c3cssc3=S)cc2)cc1
**Q:** Thanks in advance: please rank these 4 entries by SI CA II/IV, highest to lowest. In plain terms: list the labels in the order you were asked to.
**A:** IV, II, III, I
(IV: 104, II: 3.5, III: 0.7, I: 0.4)

###

Tested on: rats
test_name: Toxicity and Irwin test
Type: in vivo, rat
Design: key: Spontaneous activity / Irwin test: Straightening reflex / Irwin test: Hypo-hyperthermia / Irwin test: Cleaning / Irwin test: Curiosity / Irwin test: Reactivity / Irwin test: Convulsions: observer's semiquantitative score (0 to +4, −4 to 0, or −4 to +4)
run_parameters: 30 mg/kg; Autonomic signes; limits -4/+4
measured_parameter: Irwin test: Hypo-hyperthermia
Write the number on its own, no unit after it.

Use these answered entries as a reference point.
smiles_record	value_reported
NS(=O)(=O)c1ccc(CCN(Cc2csc3ccccc23)C(=O)c2ccc(-c3cssc3=S)cc2)cc1	0
NS(=O)(=O)c1ccc(CCN(Cc2cccc3ccccc23)C(=O)c2ccc(-c3cssc3=S)cc2)cc1	0
CSc1ccc(CN(CCc2ccc(S(N)(=O)=O)cc2)C(=O)c2ccc(-c3cssc3=S)cc2)cc1	0

**Q:** Look at this compound and give its reported Irwin test: Hypo-hyperthermia. COc1cc([N+](=O)[O-])ccc1CN(CCc1ccc(S(N)(=O)=O)cc1)C(=O)c1ccc(-c2cssc2=S)cc1
**A:** 0
